# Test system: MDR1 (P-gp)
# assay_protocol: MDCK-MDR1 permeability assay, blood-brain-barrier penetration potential
# reported_conditions: dog, MDCK-MDR1, pH 7.4, MDCK-MDR1 Efflux Ratio
With a cut-off of 5, any efflux ratio at 120 min, 5 μM strictly below it is called Y; any efflux ratio at 120 min, 5 μM meeting it or above is called N.

Here are 3 compounds together with their reported answers.
compound="CN(c1cnc(-c2ccc(-c3cn[nH]c3)cc2O)cn1)[C@H]1C[C@@H]2CCC(N2)[C@@H]1F (single isomer, unassigned)" class=N
compound="CN(c1cnc(-c2ccc(-c3cn[nH]c3)cc2O)cn1)[C@H]1CC2CC(F)(F)[C@H](C1)N2 (single isomer, unassigned)" class=Y
compound="CN(c1cnc(-c2cc3ccc(OCF)nc3cc2O)cn1)[C@@H]1CC2CC[C@H](N2)[C@@H]1F (single isomer, unassigned)" class=N

Dear colleague, could you confirm whether efflux ratio at 120 min, 5 μM of `CN(c1cnc(-c2cc(F)c(-c3ccn(C)c(=O)c3)cc2O)cn1)[C@@H]1C[C@@]2(C)CC[C@](C)(N2)[C@@H]1F` falls below 5? Thanks. N

Dear colleague, could you confirm whether efflux ratio at 120 min, 5 μM of `Cn1cc(-c2ccc(-c3cnc(N(C4CC4)[C@H]4C[C@]5(C)CC[C@@](C)(N5)[C@H]4F)cn3)c(O)c2)cn1` falls below 5? Thanks. N

Dear colleague, could you confirm whether efflux ratio at 120 min, 5 μM of CN(C)C(=O)c1cc(O)c(-c2cnc(N(C)[C@H]3C[C@@H]4CCC(N4)[C@H]3F)cn2)cc1F (single isomer, unassigned) falls below 5? Thanks. N

Dear colleague, could you confirm whether efflux ratio at 120 min, 5 μM of `CN(c1cnc(-c2ccc(-c3cc[nH]c(=O)c3)cc2O)cn1)[C@H]1C[C@@H]2CC[C@@H](N2)[C@H]1F` falls below 5? Thanks. N

Dear colleague, could you confirm whether efflux ratio at 120 min, 5 μM of CN(c1cnc(-c2ccc(-c3cn[nH]c3)cc2O)cn1)[C@H]1CC2N[C@@H](C1)CC2(F)F (single isomer, unassigned) falls below 5? Thanks. Y

Each recorded value in this set is attributed to patent US11964971B2.
